# RUN DESCRIPTION: Selectivity index, ratio of CC50 for human C8166 cells to EC50 for HIV1 LAI
# Assay type: toxicity, cell-based
# TEST CONDITIONS: read-out: Ratio CC50/EC50
EXPERIMENTAL READOUT: selectivity ratio

Item CC(C)=C/C=C1/C[C@@H]2O[C@@H](C(C)(C)O)C[C@@]23O[C@H]3[C@@H]1O has what recorded selectivity ratio?
10.1

----------
# Test system: Aspergillus fumigatus
# RUN DESCRIPTION: Antifungal activity against Aspergillus fumigatus ATCC 10894 assessed as zone of inhibition at 100 ug/disk after 48 hrs
The source made the active and inactive calls. No cut-off for these calls is given here.

>  <STRUCTURE NOTATION>
CC1(C)CC(=O)C2=C(C[C@]3(O)C[C@H](C(C)(C)O)O[C@H]3C2)O1

>  <MEASURED ON>
Aspergillus fumigatus

>  <Activity>
inactive

$$$$
>  <STRUCTURE NOTATION>
CC1(C)CC(=O)C2=C(O1)[C@H](O)[C@]1(O)C[C@H](C(C)(C)O)O[C@H]1C2

>  <MEASURED ON>
Aspergillus fumigatus

>  <Activity>
inactive

$$$$
>  <STRUCTURE NOTATION>
CC1(C)CC(=O)c2cc3c(cc2O1)C[C@H](C(C)(C)O)O3

>  <MEASURED ON>
Aspergillus fumigatus

>  <Activity>
inactive

$$$$
>  <STRUCTURE NOTATION>
CC(C)=C/C=C1/C[C@@H]2O[C@@H](C(C)(C)O)C[C@@]23O[C@H]3[C@@H]1O

>  <MEASURED ON>
Aspergillus fumigatus

>  <Activity>
inactive

$$$$
